Assay: in vitro
Details: human, hela cells, % viability
experimentalReadout: viability at 28.5 h, 10 µM (%)

> print(dat)
                                    compound  valuereported
 1        Cc1cc(COC(=O)N2CCc3ccccc32)cc(C)n1           81.4
 2  Cc1cc(C)n(CC(C)CNC(=O)Cc2csc(-c3ccco3)n2)n1 (stereo not shown)            103
 3  CC(C(=O)N1C2CCC1CC(O)(c1ccco1)C2)c1ccccc1 (stereo not shown)           97.8
 4  Cc1cc2c(cc3c(=O)n(CC(=O)NC4CCCC4)nc(C)n32)s1           96.9
 5             Cn1c(SCCN2CCOCC2)nnc1-c1cccs1           89.3
 6  COc1ccccc1Cc1cccc(C2CCN(C(=O)Cc3ccccc3)CC2)n1           88.1
 7         Nc1ncc(-c2ccco2)nc1-c1ccc(C=O)cc1            102
 8  CC(C)c1cc(C(=O)NCC2CCCN(C(C)C)C2)n(C)n1 (stereo not shown)           95.8
 9  CC1CCCCC1NC(=O)Cn1c(=O)n(C(C)C)c2ncccc21 (stereo not shown)           88.8
10             CCOc1ccsc1C(=O)N1CCc2ccccc2C1           95.1
11  CCOC(=O)C1CCCN(Cc2cc(F)cc(C(C)=O)c2O)C1 (stereo not shown)           87.1
12  O=S1(=O)CCC(c2nnc(C3(c4ccc(Br)cc4)CCOCC3)o2)C1 (stereo not shown)            115
13         CCCC/C=C/c1cncc(NCc2ccc(OC)cc2)n1           96.7
14  COc1ccc(C(C)C)cc1-c1nccnc1NCc1ccc2c(c1)OCO2             81
15               Fc1ccc(CCNC(=S)NC2CCCC2)cc1           99.9
16   O=S(=O)(/N=C(/Nc1nccs1)c1ccccc1)c1cccs1           83.8
17  COc1ccc(CC(=O)NCC(=O)N2CCC3(CC2)NCCc2nc[nH]c23)cc1            110
18  Cc1ccc(S(=O)(=O)Nc2cccc3ccccc23)c([N+](=O)[O-])c1           71.9
19  O=C(NC1CCNC1)c1ccc(F)cc1 (stereo not shown)           87.2
20          c1ccc(CC2CCN(CCOc3ccccc3)CC2)cc1            107
21  COc1ccc(C(=O)NCCCN(C)C)cc1Nc1cncc(-c2ccc(O)cc2)n1 [CBK126938T]             95
22  CS(=O)(=O)Nc1cc(-c2noc([C@@H]3CCCN3C3CCOCC3)n2)ccn1           81.8
23  Cc1cc2nccc(C3CCCN(C(=O)c4ccccc4F)C3)n2n1 (stereo not shown)           97.2
24  O=C(CCCOc1ccc(Cl)cc1)n1ccn(CCc2cccs2)c1=O            104
25     Cc1ccc(OCC(=O)Nc2ncn(Cc3cccnc3)n2)cc1             85
26       CCCc1c(Cc2c(Cl)cccc2Cl)c(=O)n(C)n1C             93
27  O=c1n(Cc2ccccc2F)nc2nnc(-c3ccccc3)c(-c3ccccc3)n12           80.9
28    CN1CCN(C(=O)c2nc(SCc3ccccc3)ncc2Cl)CC1           86.7
29  CC(C)(C)NS(=O)(=O)c1ccc(OCC(=O)NCc2ccncc2)cc1           97.3
30  Cc1cc(C(=O)O)ccc1-c1ccc(/C=C/c2[nH]c(=O)[nH]c(=O)c2[N+](=O)[O-])o1           97.3
31  CC(C)(C)c1cc(CN2CCN(CCO)CC2)cc(C(C)(C)C)c1O           95.4
32  COc1ccc(C(=O)N2C[C@@H](C)O[C@@H](C)C2)c(OC)n1           92.2
33                Clc1cncc(OCCCCOc2ccccc2)n1            108
34         COc1ccc(OC)c(NC(=S)NCCN2CCOCC2)c1           96.9
35   O=C1C[C@H]2[C@H](CC3(SCCS3)[C@@H]2CO)O1           90.2
36                NS(=O)(=O)c1cnc(Cl)c(Br)c1           92.5
37  CNS(=O)(=O)c1cccc(C(C)NC(=O)N2CCC(COC)CC2)c1 (stereo not shown)           90.4
38         CN(CCN1CCCCC1)C(=O)Cn1cnc2ccccc21           90.6
39  CCc1nccn1CC(=O)N(C)C1CCCN(Cc2ccccc2F)C1 (stereo not shown)            102
40  CNC(=O)c1cccc(NC(=O)C(C)N(C)Cc2cnc(C)s2)c1 (stereo not shown)           81.5
